# target mRNA inhibition annotations
# test_system: APOL1
# protocol_conditions: ASO, A431, 0.0625 µM
After the bases stand the sugars from the 5' end (letter, count) and the backbone: PS all phosphorothioate, else s phosphorothioate and o phosphodiester by linkage. Methylation of C is not given here. e = 2'-O-(2-methoxyethyl) (MOE); k = constrained ethyl (cEt); d = 2'-deoxy (DNA)
Answer in %, number only, no unit symbol.

[[record]]
sequence_data = "GTATTTCTTGATGTGG (sugars kkdddddkekeddddd, PS)"
quantity_measured = "target mRNA inhibition"
value_measured = 89


**Q:** State its target mRNA inhibition on APOL1: AGATGGGTACTTCTGT (sugars k4 d9 k3, PS)
**A:** 85

**Q:** State its target mRNA inhibition on APOL1: TTTTGTAAGTGCAACC (sugars k4 d9 k3, PS)
**A:** 47

**Q:** State its target mRNA inhibition on APOL1: TTGGGTCAAAAGCGAT (sugars k4 d9 k3, PS)
**A:** 56

====

# target mRNA inhibition annotations
# test_system: MALAT1
# protocol_conditions: ASO, A431, 0.005 µM
After the bases stand the sugars from the 5' end (letter, count) and the backbone: PS all phosphorothioate, else s phosphorothioate and o phosphodiester by linkage. Methylation of C is not given here. k = constrained ethyl (cEt); d = 2'-deoxy (DNA)
Answer in %, number only, no unit symbol.

**Q:** Which target mRNA inhibition reading was recorded for the sequence GTCAAGACAACTGCAT (sugars k3 d10 k3, PS) ?
**A:** 3

**Q:** Which target mRNA inhibition reading was recorded for the sequence ATACTTCTCCAATACT (sugars k3 d10 k3, PS) ?
**A:** -15

====

# target mRNA inhibition annotations
# test_system: APOL1
# protocol_conditions: ASO, A431, 2 µM
After the bases stand the sugars from the 5' end (letter, count) and the backbone: PS all phosphorothioate, else s phosphorothioate and o phosphodiester by linkage. Methylation of C is not given here. e = 2'-O-(2-methoxyethyl) (MOE); k = constrained ethyl (cEt); d = 2'-deoxy (DNA)
Answer in %, number only, no unit symbol.

Guide cases for target mRNA inhibition, answers given:
[[record]]
sequence_data = "CTATTAGAGGGCTAGT (sugars kddddkekekeddddd, PS)"
quantity_measured = "target mRNA inhibition"
value_measured = 34

[[record]]
sequence_data = "GCTAATTTTCTGACTG (sugars kdddddkekekddddd, PS)"
quantity_measured = "target mRNA inhibition"
value_measured = 98

[[record]]
sequence_data = "ATTCTCATGGTACAGG (sugars kkkddddkekekdddd, PS)"
quantity_measured = "target mRNA inhibition"
value_measured = 70

[[record]]
sequence_data = "AAGATTGGCTCTGGCT (sugars kkddddkekekddddd, PS)"
quantity_measured = "target mRNA inhibition"
value_measured = 37


**Q:** Which target mRNA inhibition reading was recorded for the sequence CTTTAAACTCAGGTGA (sugars kddddkekekeddddd, PS) ?
**A:** 70

**Q:** Which target mRNA inhibition reading was recorded for the sequence AGTTTTGTAAGTGCAA (sugars k3 d4 k3 e1 d5, PS) ?
**A:** 96

**Q:** Which target mRNA inhibition reading was recorded for the sequence ATTCTATTAGAGGGCT (sugars kkddddekekeddddd, PS) ?
**A:** 25

**Q:** Which target mRNA inhibition reading was recorded for the sequence CAACACATCATTGGGT (sugars kkddddekekeddddd, PS) ?
**A:** 80

**Q:** Which target mRNA inhibition reading was recorded for the sequence AGTATTGTTTTTGTGG (sugars kkddddekekeddddd, PS) ?
**A:** 89

**Q:** Which target mRNA inhibition reading was recorded for the sequence ATTCTCATGGTACAGG (sugars k3 d5 k3 d5, PS) ?
**A:** 97

**Q:** Which target mRNA inhibition reading was recorded for the sequence AGCTTTAAACTCAGGT (sugars kdddddkekekddddd, PS) ?
**A:** 95

**Q:** Which target mRNA inhibition reading was recorded for the sequence TTTAAACTCAGGTGAC (sugars kddddkekekeddddd, PS) ?
**A:** 43

**Q:** Which target mRNA inhibition reading was recorded for the sequence CTTTATACCAGTGTCT (sugars kkddddkdkdkddddd, PS) ?
**A:** 92
